SYSTEM NAME: human LPAR1 (Homo sapiens)
Construct: expressed in transfected cells
Sequence (Q92633 whole entry): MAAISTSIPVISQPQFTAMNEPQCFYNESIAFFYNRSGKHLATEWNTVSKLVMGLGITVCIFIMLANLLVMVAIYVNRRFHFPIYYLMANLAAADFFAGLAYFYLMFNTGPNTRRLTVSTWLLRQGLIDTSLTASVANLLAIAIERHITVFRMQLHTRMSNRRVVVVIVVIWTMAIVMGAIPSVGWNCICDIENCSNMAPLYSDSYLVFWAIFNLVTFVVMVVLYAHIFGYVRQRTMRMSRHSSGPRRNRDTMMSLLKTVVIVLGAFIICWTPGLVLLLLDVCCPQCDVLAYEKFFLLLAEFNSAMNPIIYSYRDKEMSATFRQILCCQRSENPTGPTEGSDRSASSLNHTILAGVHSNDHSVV
RUN DESCRIPTION: Test Example 1: antagonism against response of LPA-induced increase in intracellular Ca2+ concentration in RH7777 cells stably expressing human LPAR1
Format: cell-based
PARTICULARS: RH7777 cells stably expressing human LPAR1; Fluo-4 fluorescence, FDSS6000; read-out: IC50 value (concentration producing 50% antagonism against response of LPA-induced increase in intracellular Ca2+ concentration) (converted)
Note that class boundaries on IC50 are bottom range (below 3 nM), center range (3 nM to below 10 nM), top range (10 nM or more)

INSERT INTO assay_data (compound, system_name, group_label) VALUES
  ('CCOc1c(C(C)=O)ccc([C@@H](C)N(CCCCc2ccccc2)C(=O)NC2(C(=O)O)CC(OCC)C2)c1C (stereo partly drawn) [Example 1-102]', 'human LPAR1 (Homo sapiens)', 'bottom range'),
  ('COc1cc(C(C)N(CCOCc2ccccc2)C(=O)NC2(C(=O)O)CCC2)cc(OC)c1C(C)=O (stereo not drawn) [Example 5-130]', 'human LPAR1 (Homo sapiens)', 'center range'),
  ('CCOc1cc([C@@H](C)N(CCCCc2ccccc2)C(=O)NC2(C(=O)O)CC(F)(F)C2)cc(OCC)c1C(C)O (single isomer, unassigned) [Example 1-35]', 'human LPAR1 (Homo sapiens)', 'bottom range'),
  ('COc1cc(C(C)N(CCO[C@@H](C)c2ccccc2)C(=O)NC2(C(=O)O)CC(F)(F)C2)cc(OC)c1C1CC1 (stereo partly drawn) [Example 5-148]', 'human LPAR1 (Homo sapiens)', 'center range'),
  ('CCOc1cc([C@@H](C)N(CCOCc2ccccc2)C(=O)NC2(C(=O)O)CC(F)(F)C2)c(Cl)c(OCC)c1C(C)=O [Example 5-38]', 'human LPAR1 (Homo sapiens)', 'bottom range'),
  ('CCOc1cc([C@@H](C)N(CCCCc2ccccc2)C(=O)NC2(C(=O)O)CC(F)(F)C2)cc(OCC)c1CC [Example 1-48]', 'human LPAR1 (Homo sapiens)', 'bottom range'),
  ('COc1cc(C(C)N(CCCCc2ccccc2)C(=O)NC2(C(=O)O)CCC2)cc(OC)c1C (stereo not drawn) [Example 1-23]', 'human LPAR1 (Homo sapiens)', 'top range'),
  ('CCOC1CC(NC(=O)N(CCOCc2ccccc2)[C@H](C)c2cc(OC)c(C(C)=O)c(OC)c2)(C(=O)O)C1 (stereo partly drawn) [Example 5-125]', 'human LPAR1 (Homo sapiens)', 'top range'),
  ('CCOc1cc([C@@H](C)N(CCCC(F)(F)c2ccccc2)C(=O)N[C@]2(C(=O)O)C[C@@H](OC)C2)cc(OCC)c1C(C)=O [Example 4-64]', 'human LPAR1 (Homo sapiens)', 'bottom range'),
  ('COc1cc(C(C)N(CCOCc2ccccc2)C(=O)NC2(C(=O)O)CC2)c(Cl)c(OC)c1C1CC1 (stereo not drawn) [Example 5-129]', 'human LPAR1 (Homo sapiens)', 'top range'),
  ('CCOc1c(C(C)=O)ccc([C@@H](C)N(CCO[C@@H](C)c2ccccc2)C(=O)N[C@]2(C(=O)O)C[C@@H](OCC)C2)c1C [Example 4-140]', 'human LPAR1 (Homo sapiens)', 'center range'),
  ('CCOc1cc(C(C)N(CCOC(C)c2ccccc2)C(=O)N[C@]2(c3nn[nH]n3)C[C@@H](OC)C2)cc(OCC)c1C(C)O (stereo partly drawn) [Example 10-17]', 'human LPAR1 (Homo sapiens)', 'top range'),
  ('CCOc1cc([C@@H](C)N(CCO[C@@H](C)c2ccccc2)C(=O)N[C@]2(C(=O)O)C[C@@H](OCC)C2)c(C)c(OCC)c1C [Example 5-82]', 'human LPAR1 (Homo sapiens)', 'bottom range'),
  ('COc1cc(C(C)N(CCOCc2ccccc2)C(=O)NC2(C(=O)O)CCOCC2)c(C)c(OC)c1C1CC1 (stereo not drawn) [Example 5-177]', 'human LPAR1 (Homo sapiens)', 'bottom range'),
  ('CCOc1cc(C(C)N(CCO[C@@H](C)c2ccccc2)C(=O)NC2(C(=O)O)CC(OCC)C2)c(Cl)c(OCC)c1C(C)=O (stereo partly drawn) [Example 5-223]', 'human LPAR1 (Homo sapiens)', 'bottom range'),
  ('CCO[C@H]1C[C@@](NC(=O)N(CCOCc2ccccc2)C(C)c2cc(OC)c(C(C)=O)c(OC)c2Cl)(C(=O)O)C1 (stereo partly drawn) [Example 5-127]', 'human LPAR1 (Homo sapiens)', 'center range'),
  ('CCOc1cc([C@@H](C)N(CCCCc2ccccc2)C(=O)NC2(C(=O)O)CC2)cc(OCC)c1C [Example 1-17]', 'human LPAR1 (Homo sapiens)', 'top range'),
  ('CCOc1cc([C@@H](C)N(CCCCc2ccccc2)C(=O)NC2(C(=O)O)CCCCC2)cc(OCC)c1C [Example 1-118]', 'human LPAR1 (Homo sapiens)', 'top range'),
  ('CCOc1cc(C(C)N(CCCCc2ccccc2)C(=O)NC2(C(=O)O)CC(F)(F)C2)cc(OCC)c1C(=O)C(F)(F)F (stereo not drawn) [Example 1-59]', 'human LPAR1 (Homo sapiens)', 'top range'),
  ('CCOc1cc([C@@H](C)N(CCCC(F)(F)c2ccccc2)C(=O)N[C@]2(C(=O)O)C[C@@H](OC)C2)cc(OCC)c1C(C)=O [Example 4-65]', 'human LPAR1 (Homo sapiens)', 'center range'),
  ('CCOc1c(C(C)=O)ccc([C@@H](C)N(CCCCc2ccccc2)C(=O)NC2(C(=O)O)CCOCC2)c1C [Example 1-156]', 'human LPAR1 (Homo sapiens)', 'center range'),
  ('CCOc1cc([C@@H](C)N(CCCCc2ccccc2)C(=O)NC(C)(C)C(=O)O)cc(OCC)c1C [Example 1-13]', 'human LPAR1 (Homo sapiens)', 'top range'),
  ('CCOc1cc([C@@H](C)N(CCO[C@@H](C)c2ccccc2)C(=O)N[C@]2(C(=O)O)C[C@@H](OCC)C2)cc(OCC)c1C1CC1 [Example 4-139]', 'human LPAR1 (Homo sapiens)', 'bottom range'),
  ('CCOc1cc([C@@H](C)N(CC(C)CCc2ccccc2)C(=O)NC2(C(=O)O)Cc3ccccc3C2)cc(OCC)c1C (stereo partly drawn) [Example 4-39]', 'human LPAR1 (Homo sapiens)', 'top range'),
  ('CCOc1cncc(C(C)N(CCCCc2ccccc2)C(=O)NC2(C(=O)O)CC(F)(F)C2)c1 (stereo not drawn) [Example 5-89]', 'human LPAR1 (Homo sapiens)', 'top range'),
  ('CCOc1cc(C#N)cc(C(C)N(CCCCc2ccccc2)C(=O)NC2(C(=O)O)CC(F)(F)C2)c1 (stereo not drawn) [Example 5-20]', 'human LPAR1 (Homo sapiens)', 'center range'),
  ('CCOc1cc([C@@H](C)N(CCO[C@@H](C)c2ccccc2)C(=O)N[C@]2(C(=O)O)C[C@@H](OCC)C2)cc(OCC)c1C(C)O (stereo partly drawn) [Example 4-136]', 'human LPAR1 (Homo sapiens)', 'center range');
